Measured pEC50 accompanies every entry in the list below.
tgt: UniProt:P11229
assay.protocol: mAChR M1 cell-based functional assay (calcium mobilization, potentiation of EC20 acetylcholine response)
assay.setup: positive allosteric modulation of EC20 ACh response, mAChR M1 CHO-K1 cells; >10 μM estimated where no plateau; read-out: EC50
pEC50: −log10 of the molar value.

| compound | bound.operator | pEC50 |
| --- | --- | --- |
| O=C1c2ncccc2CN1Cc1ccc(-c2ccc3cnccc3c2)cc1F | = | 5.83 |
| Cn1cc2c(-c3ccc(CN4Cc5cccnc5C4=O)c(F)c3)cccc2n1 | = | 6.07 |
| O=C1c2cccnc2CN1Cc1ccc(-c2ccc3ccncc3c2)cc1F | = | 5.81 |
| CN(C)c1ccc(-c2ccc(CN3Cc4ncccc4C3=O)c(F)c2)cc1 | < | 5.00 |
| Cc1cc(-c2ccc(CN3Cc4ncccc4C3=O)c(F)c2)cnc1F | = | 5.60 |
| Cn1cc2c(-c3ccc(CN4Cc5ncccc5C4=O)c(F)c3)cccc2n1 | = | 6.07 |
| Cn1cc(-c2cnc(CN3Cc4ccccc4C3=O)c(F)c2)cn1 | < | 5.00 |
| Cc1cc(-c2ccc(CN3Cc4cccnc4C3=O)c(Cl)c2)cnc1Cl | = | 5.70 |
| Cn1cc2c(-c3cc(F)c(CN4Cc5ncccc5C4=O)c(F)c3)cccc2n1 | = | 6.80 |
| O=C1c2cccnc2CN1Cc1ccc(-c2ccc3cncn3c2)cc1F | = | 6.06 |
| COc1ccc(-c2ccc(CN3Cc4cccnc4C3=O)c(Cl)c2)cc1 | = | 5.83 |
| Cc1nc(-c2ccc(CN3Cc4ccccc4S3(=O)=O)cc2)no1 | < | 5.00 |
| CN(C)c1ccc(-c2ccc(CN3Cc4ncccc4C3=O)c(F)c2)cn1 | = | 5.98 |
| CC(c1ccc(-c2cnn(C)c2)cc1F)N1Cc2ccccc2C1=O (stereo not shown) | < | 5.00 |
| O=C1c2ncccc2CN1Cc1ccc(-c2ccncc2)cc1Cl | < | 5.00 |
| Cn1cc2cc(Nc3ccc(CN4Cc5ncccc5C4=O)c(F)c3)ccc2n1 | = | 5.43 |
| O=C1c2cccnc2CN1Cc1ccc(-c2ccc3cc[nH]c3c2)cc1F | < | 5.00 |
| O=C1c2ccccc2CN1Cc1ccc(-n2ccnc2)cc1F | < | 5.00 |
| Cc1cc(-c2ccncc2)ccc1CN1Cc2cccnc2C1=O | < | 5.00 |

* * *

tgt: UniProt:P11229
Sequence (P11229 1-460): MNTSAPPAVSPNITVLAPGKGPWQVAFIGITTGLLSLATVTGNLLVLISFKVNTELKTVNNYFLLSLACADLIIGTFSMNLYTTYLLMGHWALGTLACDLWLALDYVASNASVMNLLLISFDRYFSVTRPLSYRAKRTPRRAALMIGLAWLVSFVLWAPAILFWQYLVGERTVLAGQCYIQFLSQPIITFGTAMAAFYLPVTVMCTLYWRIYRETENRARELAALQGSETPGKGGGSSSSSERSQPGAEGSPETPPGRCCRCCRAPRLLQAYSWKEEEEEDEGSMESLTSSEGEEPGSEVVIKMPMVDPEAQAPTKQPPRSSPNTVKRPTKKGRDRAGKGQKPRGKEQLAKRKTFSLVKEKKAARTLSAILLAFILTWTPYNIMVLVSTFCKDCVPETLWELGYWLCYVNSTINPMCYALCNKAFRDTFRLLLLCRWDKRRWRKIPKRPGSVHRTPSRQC
assay.protocol: mAChR M1 cell-based functional assay (calcium mobilization, potentiation of EC20 acetylcholine response)
assay.setup: % ACh maximum at 30 μM; mAChR M1-expressing CHO-K1 cells, calcium flux
# Emax (%) >= 60% gives satisfied, anything below gives not satisfied

| cpd.smiles | group |
| --- | --- |
| COc1ncccc1-c1ccc(CN2Cc3ncccc3C2=O)c(F)c1 | not satisfied |
| Cn1cc(-c2ccc(CN3Cc4cccnc4C3=O)c(F)c2)cn1 | satisfied |
| Cn1ncc2ccc(-c3ccc(CN4Cc5ccccc5C4=O)c(F)c3)cc21 | satisfied |
| CN1CCc2cc(-c3cc(F)c(CN4Cc5ncccc5C4=O)c(F)c3)ccc21 | not satisfied |
| O=C1c2cccnc2CN1Cc1ccc(-c2cnc3ccccn23)cc1F | satisfied |
| Cn1cc2c(-c3ccc(CN4Cc5ncccc5C4=O)c(F)c3)cccc2n1 | satisfied |
| Cn1cnc2ccc(-c3ccc(CN4Cc5ncccc5C4=O)c(F)c3)cc21 | satisfied |
| Cc1cc(-c2ccc(CN3Cc4ncccc4C3=O)c(F)c2)cnc1Cl | not satisfied |
| Cn1cc2cc(-c3ccc(CN4Cc5ncccc5C4=O)c(F)c3)ccc2n1 | satisfied |
